Target: human V2 receptor (Homo sapiens, UniProt P30518)
Construct: expressed in transfected cells; host or cells: CHO K1 (ATCC) expressing firefly luciferase under a CRE-responsive promoter
Sequence (P30518 whole entry): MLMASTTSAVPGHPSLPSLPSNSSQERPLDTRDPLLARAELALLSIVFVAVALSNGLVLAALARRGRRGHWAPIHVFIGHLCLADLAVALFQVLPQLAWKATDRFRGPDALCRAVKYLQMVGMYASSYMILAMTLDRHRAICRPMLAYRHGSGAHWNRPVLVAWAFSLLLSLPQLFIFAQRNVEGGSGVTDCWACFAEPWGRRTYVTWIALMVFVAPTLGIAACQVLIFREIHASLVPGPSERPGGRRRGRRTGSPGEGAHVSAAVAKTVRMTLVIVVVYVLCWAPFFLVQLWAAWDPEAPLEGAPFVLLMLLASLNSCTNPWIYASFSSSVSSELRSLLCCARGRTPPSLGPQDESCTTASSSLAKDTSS
Assay: Cellular in vitro assay for determining vasopressin receptor activity, V2 receptor cell line (CHO, CRE-luciferase)
Format: cell-based
Conditions: CHO cell line transfected with human V2 receptor; [Arg8]-vasopressin at EC50 concentration, 3 hours; read-out: IC50 hV2
pIC50: −log10 of the molar value.
Measured quantity: pIC50

| Compound | Measured quantity | Obs value |
| --- | --- | --- |
| O=C(Nc1cccnc1-n1cnc(Cn2nc(-c3ccc(Cl)cc3)n(C[C@H](O)C(F)(F)F)c2=O)n1)C1CC1F (single isomer, unassigned) [Example 60] | pIC50 | 6.05 |

a: O=C(Nc1ccc(F)cn1)c1ccccc1-n1cnc(Cn2nc(-c3ccc(Cl)cc3)n(C[C@H](O)C(F)(F)F)c2=O)n1
b: Cc1cn(CC(=O)Nc2ncccc2-n2cnc(Cn3nc(-c4ccc(Cl)cc4)n(C[C@H](O)C(F)(F)F)c3=O)n2)nn1
c: CN1CC2CC1CN2C(=O)c1ccccc1-n1cnc(Cn2nc(-c3ccc(Cl)cc3)n(C[C@H](O)C(F)(F)F)c2=O)n1 (stereo partly drawn)
d: CS(=O)(=O)NCC(=O)Nc1cccnc1-n1cnc(Cn2nc(-c3ccc(Cl)cc3)n(C[C@H](O)C(F)(F)F)c2=O)n1
e: O=C(Nc1ccccc1Cl)c1ccccc1-n1cnc(Cn2nc(-c3ccc(Cl)cc3)n(C[C@H](O)C(F)(F)F)c2=O)n1
Prompt: Task field, ranking: reported pIC50, descending order. # output: labels, in the requested order
Completion: e, a, b, d, c

---

Target: human V1a receptor (Homo sapiens, UniProt P37288)
Construct: expressed in transfected cells; host or cells: CHO K1 (ATCC), also stably transfected with a modified aequorin
Sequence (P37288 whole entry): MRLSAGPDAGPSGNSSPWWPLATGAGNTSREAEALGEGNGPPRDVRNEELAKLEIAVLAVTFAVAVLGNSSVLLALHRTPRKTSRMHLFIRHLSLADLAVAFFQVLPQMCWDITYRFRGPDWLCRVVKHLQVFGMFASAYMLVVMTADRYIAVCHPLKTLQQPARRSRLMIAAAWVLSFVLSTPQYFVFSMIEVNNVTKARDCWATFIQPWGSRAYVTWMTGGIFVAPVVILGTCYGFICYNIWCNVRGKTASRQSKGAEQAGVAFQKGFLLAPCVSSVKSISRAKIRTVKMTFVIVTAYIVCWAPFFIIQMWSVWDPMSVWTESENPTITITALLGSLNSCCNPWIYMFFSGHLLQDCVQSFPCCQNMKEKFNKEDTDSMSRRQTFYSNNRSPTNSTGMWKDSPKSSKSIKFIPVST
Assay: Cellular in vitro assay for determining vasopressin receptor activity, V1a receptor cell line (CHO, aequorin luminescence)
Type: cell-based
Details: selectivity ratio IC50 hV2 / IC50 hV1a
Measured quantity: ratio IC50 hV2/hV1a

Worked set:
| Compound | Obs value |
| --- | --- |
| O=C1CN(c2ccncc2-n2cnc(Cn3nc(-c4ccc(Cl)cc4)n(C[C@H](O)C(F)(F)F)c3=O)n2)CCN1 | 16.7 |
| O=C(c1cccc(Cl)c1-n1cnc(Cn2nc(-c3ccc(Cl)cc3)n(C[C@H](O)C(F)(F)F)c2=O)n1)N1CCS(=O)(=O)CC1 | 22.0 |
| CC(C)(C)OC(=O)CCNc1ccncc1-n1cnc(Cn2nc(-c3ccc(Cl)cc3)n(C[C@H](O)C(F)(F)F)c2=O)n1 | 5.2 |
| O=C1CN(C(=O)c2nc(Cn3nc(-c4ccc(Cl)cc4)n(C[C@H](O)C(F)(F)F)c3=O)nn2-c2cnccc2C(=O)NCCC(F)(F)F)CCN1 | 0.9 |
| O=C(NC1(C(F)(F)F)CC1)c1ncccc1-n1cnc(Cn2nc(-c3ccc(Cl)cc3)n(C[C@H](O)C(F)(F)F)c2=O)n1 | 27.6 |
| O=C(NC1CC1(F)F)c1ncccc1-n1cnc(Cn2nc(-c3ccc(Cl)cc3)n(C[C@@H](O)C(F)(F)F)c2=O)n1 (stereo partly shown) | 30.4 |
| CC(C)(N)CNc1ccncc1-n1cnc(Cn2nc(-c3ccc(Cl)cc3)n(C[C@H](O)C(F)(F)F)c2=O)n1 | 4.0 |
| Cn1cncc1C(=O)Nc1ncccc1-n1cnc(Cn2nc(-c3ccc(Cl)cc3)n(C[C@H](O)C(F)(F)F)c2=O)n1 | 113.2 |
| O=C(NCC1CC1)c1ccccc1-n1cnc(Cn2nc(-c3ccc(Cl)cc3)n(C[C@H](O)C(F)(F)F)c2=O)n1 | 118.8 |
| O=C(c1cccc(Cl)c1-n1cnc(Cn2nc(-c3ccc(Cl)cc3)n(C[C@@H](O)C(F)(F)F)c2=O)n1)N1CCCCC1 | 41.5 |

P: O=C(CC1CC1)Nc1cccnc1-n1cnc(Cn2nc(-c3ccc(Cl)cc3)n(C[C@H](O)C(F)(F)F)c2=O)n1
Q: O=C(NCC1CC1)c1ncccc1-n1cnc(Cn2nc(-c3ccc(Cl)cc3)n(C[C@@H](O)C(F)(F)F)c2=O)n1
Prompt: Of P and Q , whose reported ratio IC50 hV2/hV1a is numerically smaller? // caller expects the label of the chosen entry
Completion: Q
(Q: 21.0, P: 49.0)

Just for reference, patent US11173151B2 is where these values come from.
